// provenance: paper PMC7384330

- Study System: OXTR (β-arrestin recruitment) (Homo sapiens, UniProt P30559)
- Sequence (P30559 1-389): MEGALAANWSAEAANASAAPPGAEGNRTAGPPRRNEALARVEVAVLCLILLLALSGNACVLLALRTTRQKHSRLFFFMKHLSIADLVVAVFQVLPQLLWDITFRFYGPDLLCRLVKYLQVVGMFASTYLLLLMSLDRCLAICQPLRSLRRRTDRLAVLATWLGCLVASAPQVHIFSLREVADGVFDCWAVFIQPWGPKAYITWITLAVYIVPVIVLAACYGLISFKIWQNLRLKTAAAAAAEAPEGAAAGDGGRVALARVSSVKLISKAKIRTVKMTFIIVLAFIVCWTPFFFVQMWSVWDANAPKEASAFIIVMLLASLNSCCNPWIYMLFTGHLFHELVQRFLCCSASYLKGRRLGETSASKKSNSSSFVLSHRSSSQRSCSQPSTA
- Type: cell-based
pEC50: −log10 of the molar value.

- Compound: "Cc1cc(C(=O)N2Cc3cnn(C)c3Nc3ccccc32)ccc1CNC(=O)N1CCC[C@H]1C(=S)N1CCCN(C)CC1 [TC-OT-39]"
  Study System: "OXTR (β-arrestin recruitment) (Homo sapiens, UniProt P30559)"
  pEC50: 6.51
